Origin of measurements: patent US20130035256A1

Some compounds, each annotated with its measured Calcium-based assay % stim.
- study_target: M4R (Homo sapiens, UniProt P08173)
- Construct: expressed in transfected cells
- assay_remarks: Calcium-based assay, calcium flux in cells co-expressing recombinant M4R and modified Gαq
- Assay type: cell-based
- assay_conditions: activity @ 30uM or 30 ug/ml; compound tested alone; normalized to maximal effect of the orthosteric agonist
Answer with a number only, understood to be in %.

C[C@H]1CCC/C=C/[C@@H]2C[C@H](O)C[C@H]2[C@H](O)/C=C/C(=O)O1 = 5.2
CC[C@H]1/C=C/C=C/C[C@@H](C)[C@H](O)[C@@](C)(O)C(=O)[C@@H](C)[C@H](O)[C@@H](C)C(=O)[C@@H](C)[C@H](O)[C@@H](C)/C=C/C(=O)O[C@@H]2[C@H](C)[C@H](CC1)O[C@]1(CC[C@H](C)[C@H](C[C@@H](C)O)O1)[C@H]2C = 3.3
NCCOB(c1ccccc1)c1ccccc1 = 3.7
O=C1Nc2ccc(I)cc2/C1=C/c1cc(Br)c(O)c(Br)c1 = 879.7
Cc1ccc2c(c1)C(=O)C1(O)CCN(c3ccccc3)C1=N2 (racemic) [(±)-Blebbistatin] = 130.0
CCN1C(=O)C=CC1=O [N-Ethylmaleimide] = 3.8
Cn1c2c(c(=O)n(C)c1=O)C(c1cccc(Br)c1)C1=C(N2)c2ccccc2C1=O (stereo not shown) = 18.1
CN(C)CCCn1cc(C2=C(c3c[nH]c4ccccc34)C(=O)NC2=O)c2ccccc21 [GF 109203X] = 154.3
C=C[C@@]1(C)CC(=O)[C@]2(O)[C@@]3(C)[C@@H](O)CCC(C)(C)[C@@H]3[C@H](O)[C@H](OC(C)=O)[C@@]2(C)O1 = 57.8
O=C1OC2(c3ccccc31)c1ccc(O)c(O)c1Oc1c2ccc(O)c1O = 11.7

Moving on to the next compound.
Task: For the record `O=C(N/N=C/c1ccc(O)c(O)c1)c1cc2ccccc2cc1O` , what value of Calcium-based assay % stim is listed for M4R (Homo sapiens, UniProt P08173)?
Output: 13.4

###

- study_target: chimeric M4R (RGLG-2) (Homo sapiens)
- Construct: ID; NOs; expressed in transfected cells
- assay_remarks: BRET assay of the invention, cells co-expressing chimeric M4R (RGLG-2) and FP-Gγ9
- Assay type: cell-based
- assay_conditions: activity @ 30uM or 30 ug/ml; in presence of EC20 value of Ach; normalized to maximal effect of the orthosteric agonist
Some compounds, each annotated with its measured Invention assay % enh.
Answer with a number only, understood to be in %.

CCOC(=O)C1=C(C)NC(=S)NC1c1cccc(O)c1 (centres unmarked) [Monastrol] = −0.1
Nc1c[n+](N2CCOCC2)no1.[Cl-] [SIN-1 chloride] = 3.6
COC(=O)C1=C(C)NC(C)=C([N+](=O)[O-])[C@H]1c1ccccc1C(F)(F)F [(S)-(−)-Bay K 8644] = −3.6
COC(=O)c1c(C)[nH]c(C)c1C(=O)c1ccccc1Cc1ccccc1 [FPL 64176] = 7.5

Task: Which Invention assay % enh value is on record for O=C1OC2(c3ccccc31)c1ccc(O)c(O)c1Oc1c2ccc(O)c1O [Gallein] ?
Output: 5.1

###

- study_target: chimeric M4R (RGLG-2) (Homo sapiens, UniProt P08173)
- Construct: ID; NOs; expressed in transfected cells
- Sequence (P08173 with tags, fused parts or gaps): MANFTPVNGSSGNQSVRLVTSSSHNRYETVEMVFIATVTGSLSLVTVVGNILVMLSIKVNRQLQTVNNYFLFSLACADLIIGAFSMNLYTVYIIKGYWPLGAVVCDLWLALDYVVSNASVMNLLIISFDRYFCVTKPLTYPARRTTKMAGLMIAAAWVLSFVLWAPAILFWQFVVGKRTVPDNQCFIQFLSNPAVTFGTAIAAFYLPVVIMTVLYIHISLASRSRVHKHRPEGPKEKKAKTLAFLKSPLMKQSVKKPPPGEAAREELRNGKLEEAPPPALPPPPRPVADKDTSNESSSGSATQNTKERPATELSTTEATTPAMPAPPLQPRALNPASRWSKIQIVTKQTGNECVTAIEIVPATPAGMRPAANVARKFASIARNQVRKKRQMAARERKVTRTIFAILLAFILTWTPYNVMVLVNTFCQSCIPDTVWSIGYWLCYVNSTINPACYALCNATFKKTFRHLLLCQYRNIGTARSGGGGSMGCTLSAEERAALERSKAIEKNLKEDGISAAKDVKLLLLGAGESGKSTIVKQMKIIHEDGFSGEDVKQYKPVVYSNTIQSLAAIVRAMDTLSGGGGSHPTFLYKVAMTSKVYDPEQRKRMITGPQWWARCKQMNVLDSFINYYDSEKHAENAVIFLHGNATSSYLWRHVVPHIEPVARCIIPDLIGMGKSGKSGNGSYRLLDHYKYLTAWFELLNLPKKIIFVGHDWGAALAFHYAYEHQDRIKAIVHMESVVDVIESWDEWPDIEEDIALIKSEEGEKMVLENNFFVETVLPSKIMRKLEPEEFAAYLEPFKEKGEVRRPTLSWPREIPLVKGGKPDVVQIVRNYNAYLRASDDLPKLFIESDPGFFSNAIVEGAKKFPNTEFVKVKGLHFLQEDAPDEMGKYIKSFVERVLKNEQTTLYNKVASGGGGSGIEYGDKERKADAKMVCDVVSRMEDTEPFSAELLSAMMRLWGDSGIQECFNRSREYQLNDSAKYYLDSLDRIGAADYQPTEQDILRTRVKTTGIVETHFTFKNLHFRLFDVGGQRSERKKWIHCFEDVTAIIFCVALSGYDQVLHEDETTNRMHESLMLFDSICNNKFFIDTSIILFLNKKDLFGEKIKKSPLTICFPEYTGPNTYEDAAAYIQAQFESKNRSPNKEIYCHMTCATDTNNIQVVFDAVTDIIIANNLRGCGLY
- assay_remarks: BRET assay of the invention, cells co-expressing chimeric M4R (RGLG-2) and FP-Gγ9
- Type: cell-based
- assay_conditions: activity @ 30uM or 30 ug/ml; in presence of EC80 of Ach; normalized to maximal effect of the orthosteric agonist
Some compounds, each annotated with its measured Invention assay % inh.
Answer with a number only, understood to be in %.

Task: Which Invention assay % inh value is on record for `C=C[C@@]1(C)CC(=O)[C@]2(O)[C@@]3(C)[C@@H](O)CCC(C)(C)[C@@H]3[C@H](O)[C@H](OC(C)=O)[C@@]2(C)O1` ?
Output: 11.8
